# Tested on: ACHN renal
# PROCEDURE_DETAILS: NCI-60 one-dose screen, 48 h
# MEASUREMENT_CONTEXT: 10 µM unless noted
This is part of a sample that, as a whole, favours compounds with a hit. Of some 83,000 tested, about 20% had one in any assay. Active and inactive are the calls of the source. Rule for the calls: active = growth percent below 10; inactive = the rest.
Outcomes: active, inactive

[
  {
    "MOLECULE": "C=C(C)[C@@H]1CC[C@]2(COCCCNCCCN)CC[C@]3(C)[C@H](CC[C@@H]4[C@@]5(C)CC[C@H](OCCCN)C(C)(C)[C@@H]5CC[C@]43C)[C@@H]12",
    "STUDY_SYSTEM": "ACHN renal",
    "LABEL": "active"
  },
  {
    "MOLECULE": "COc1nc2ccccc2cc1/C=C1/C=C(c2ccccc2)NC1=O",
    "STUDY_SYSTEM": "ACHN renal",
    "LABEL": "inactive"
  },
  {
    "MOLECULE": "O=C(CN1C(=O)NC2NC(=O)NC21)N/N=C/c1cccc([N+](=O)[O-])c1 (centres undefined)",
    "STUDY_SYSTEM": "ACHN renal",
    "LABEL": "inactive"
  },
  {
    "MOLECULE": "COc1ccc(NC(=O)c2sc3nc(C)c(C(=O)c4ccccc4)cc3c2N)cc1",
    "STUDY_SYSTEM": "ACHN renal",
    "LABEL": "inactive"
  },
  {
    "MOLECULE": "COc1cc(OC)cc(C(=O)Nc2cnc(Nc3ccc(N4CCOCC4)nc3)nc2Oc2ccc(C(F)(F)F)cc2)c1",
    "STUDY_SYSTEM": "ACHN renal",
    "LABEL": "inactive"
  },
  {
    "MOLECULE": "O=c1c(Cc2ccc(F)cc2)cc(-c2ccccc2)nn1C/C(=N/O)c1ccccc1",
    "STUDY_SYSTEM": "ACHN renal",
    "LABEL": "inactive"
  },
  {
    "MOLECULE": "CC(=O)[C@H]1CC[C@]2(C)[C@@H]1CC[C@@H]1[C@@]3(C)C/C(=C/c4cccnc4)C(=O)C(C)(C)[C@@H]3CC[C@]12C",
    "STUDY_SYSTEM": "ACHN renal",
    "LABEL": "inactive"
  },
  {
    "MOLECULE": "Cc1cc(=O)oc2cc(Oc3nc(-c4ccccc4)cn4c(-c5ccccc5)cnc34)ccc12",
    "STUDY_SYSTEM": "ACHN renal",
    "LABEL": "inactive"
  },
  {
    "MOLECULE": "C1=C2CCCC3=Cc4ccccc4OC23Oc2ccccc21",
    "STUDY_SYSTEM": "ACHN renal",
    "LABEL": "inactive"
  },
  {
    "MOLECULE": "O=C(Nc1ccc2c(c1)-c1ccccc1C2)C1CC(=O)N(c2ccc3c(c2)OCO3)C1 (centres undefined)",
    "STUDY_SYSTEM": "ACHN renal",
    "LABEL": "inactive"
  },
  {
    "MOLECULE": "CCCCCCCCNc1ncnc2c1ncn2Cc1nnc2c3ccccc3c(Cl)nn12",
    "STUDY_SYSTEM": "ACHN renal",
    "LABEL": "inactive"
  },
  {
    "MOLECULE": "O=CN1N=C(c2cccc(Nc3ccncc3)c2)CC1c1ccc2c(c1)OCO2 (centres undefined)",
    "STUDY_SYSTEM": "ACHN renal",
    "LABEL": "inactive"
  },
  {
    "MOLECULE": "Nc1ccc(Cl)c2c(=O)c3ccccc3[nH]c12",
    "STUDY_SYSTEM": "ACHN renal",
    "LABEL": "inactive"
  },
  {
    "MOLECULE": "O=C(Oc1ccccc1)c1cc(O)c(O)c(O)c1",
    "STUDY_SYSTEM": "ACHN renal",
    "LABEL": "inactive"
  },
  {
    "MOLECULE": "COc1cc2ncnc(Nc3ccc(S(=O)(=O)Nc4cc(C)on4)cc3)c2cc1OCCCN1CCOCC1",
    "STUDY_SYSTEM": "ACHN renal",
    "LABEL": "inactive"
  },
  {
    "MOLECULE": "CCC(=C(c1ccc(OCCN(CC)CC)cc1)c1ccc(OCCN(CC)CC)cc1)c1ccc(Cl)cc1",
    "STUDY_SYSTEM": "ACHN renal",
    "LABEL": "active"
  },
  {
    "MOLECULE": "COc1cc(OCc2cccc(-c3ccccc3)c2C)cc(OC)c1CN1CCCCC1C(=O)NCCOCCOCCN (centres undefined)",
    "STUDY_SYSTEM": "ACHN renal",
    "LABEL": "inactive"
  },
  {
    "MOLECULE": "COC(=O)[C@H](C)NC(=O)c1ccc(NC(=O)c2[nH]c(C)c(Cl)c2Cl)c(OCCN)c1",
    "STUDY_SYSTEM": "ACHN renal",
    "LABEL": "inactive"
  },
  {
    "MOLECULE": "COc1ccc(-c2nc3cc(C(=O)NC4CCCCC4)ccc3n2C2CCCCC2)cc1",
    "STUDY_SYSTEM": "ACHN renal",
    "LABEL": "inactive"
  },
  {
    "MOLECULE": "C=CC(=O)Nc1ccc2ncnc(Nc3cccc(NS(=O)(=O)CCC)c3Cl)c2c1",
    "STUDY_SYSTEM": "ACHN renal",
    "LABEL": "inactive"
  },
  {
    "MOLECULE": "Cc1ccc(S(=O)(=O)c2nc(-c3ccccc3)oc2S(C)=O)cc1 (centres undefined)",
    "STUDY_SYSTEM": "ACHN renal",
    "LABEL": "active"
  },
  {
    "MOLECULE": "COc1cccc2cc(N(C)c3nc(C)nc4c3CCC4)ccc12",
    "STUDY_SYSTEM": "ACHN renal",
    "LABEL": "inactive"
  },
  {
    "MOLECULE": "O=C(Nc1cccc2c1C(=O)c1cccc(NC(=O)c3ccc(C(=O)Nc4cccc5c4C(=O)c4cccc(NC(=O)c6ccccc6)c4C5=O)cc3)c1C2=O)c1ccccc1",
    "STUDY_SYSTEM": "ACHN renal",
    "LABEL": "inactive"
  },
  {
    "MOLECULE": "Cc1[nH]c(C2CC(c3ccc(C(F)(F)F)c(F)c3)=NN2C)c(C)c1C(=O)NCC(F)(F)F (centres undefined)",
    "STUDY_SYSTEM": "ACHN renal",
    "LABEL": "inactive"
  },
  {
    "MOLECULE": "CCOC(=O)C1=C(c2ccccc2)N=C2N(c3ccccc3)N=C(C(C)=O)N2C1c1ccc(Br)cc1 (centres undefined)",
    "STUDY_SYSTEM": "ACHN renal",
    "LABEL": "inactive"
  },
  {
    "MOLECULE": "COc1cc(OCc2cccc(-c3ccc4c(c3)OCCO4)c2C)cc(OC)c1C=O",
    "STUDY_SYSTEM": "ACHN renal",
    "LABEL": "inactive"
  },
  {
    "MOLECULE": "O=C(Nc1ncc(Cc2ccc(Cl)cc2)s1)C1=NCCCCN1",
    "STUDY_SYSTEM": "ACHN renal",
    "LABEL": "inactive"
  },
  {
    "MOLECULE": "COc1ccc2c(O)cc3c(c2c1)[C@H](CCl)CN3C(=O)c1cc2cc(NC(=O)CCN3CCOCC3)ccc2[se]1",
    "STUDY_SYSTEM": "ACHN renal",
    "LABEL": "active"
  },
  {
    "MOLECULE": "CCCn1cnc2c(c1=N)C(c1ccc(Cl)cc1)c1sc3c(F)cccc3c1O2 (centres undefined)",
    "STUDY_SYSTEM": "ACHN renal",
    "LABEL": "inactive"
  },
  {
    "MOLECULE": "C#CCOc1cccc(-c2ncnc3cc(NC(=O)CCl)ccc23)c1",
    "STUDY_SYSTEM": "ACHN renal",
    "LABEL": "active"
  },
  {
    "MOLECULE": "CC(C)(C#N)c1cc(C(=O)Nc2cc(Nc3ncccc3-c3ncnc4nc[nH]c34)ccc2F)cc(C(F)(F)F)c1",
    "STUDY_SYSTEM": "ACHN renal",
    "LABEL": "inactive"
  },
  {
    "MOLECULE": "CCN1C(=O)N(CC)C2C1NC(=S)N2/N=C/C=C/c1ccccc1 (centres undefined)",
    "STUDY_SYSTEM": "ACHN renal",
    "LABEL": "inactive"
  },
  {
    "MOLECULE": "C=CCn1c(SCC(=O)Nc2ccc(C(=O)/C=C/c3ccc(Cl)cc3)cc2)nnc1-c1ccccc1",
    "STUDY_SYSTEM": "ACHN renal",
    "LABEL": "inactive"
  },
  {
    "MOLECULE": "COC(=O)c1c(C(=O)OC)c2ccc3c4ncccc4ccc3n2c1C(=O)c1ccc(C)cc1",
    "STUDY_SYSTEM": "ACHN renal",
    "LABEL": "inactive"
  },
  {
    "MOLECULE": "O=C1CC2C=CCN2C=C1NC(=O)c1ccccc1 (centres undefined)",
    "STUDY_SYSTEM": "ACHN renal",
    "LABEL": "inactive"
  },
  {
    "MOLECULE": "COc1ccc(C(=O)/C=C/Nc2cc(-c3ccccc3)nn2-c2ccccc2)cc1",
    "STUDY_SYSTEM": "ACHN renal",
    "LABEL": "inactive"
  },
  {
    "MOLECULE": "Cc1csc(Nc2nc(-c3cccc(Cl)c3)nc(C(Cl)(Cl)Cl)n2)n1",
    "STUDY_SYSTEM": "ACHN renal",
    "LABEL": "active"
  },
  {
    "MOLECULE": "CCCCC1=C(Br)C(=O)c2ncccc2C1=O",
    "STUDY_SYSTEM": "ACHN renal",
    "LABEL": "inactive"
  },
  {
    "MOLECULE": "CN(C)CCCN(CCC1CCCCC1)CCC1CCCCC1",
    "STUDY_SYSTEM": "ACHN renal",
    "LABEL": "inactive"
  }
]
